- TARGET_ENTITY: HLA-A*3301 (Homo sapiens, UniProt P04439, A270S/D185E/E176V/E277Q/E87N/F33T/G231S/H175R/I121M/I218V/I322F/K168Q/K210R/L300P/L318F/M331R/P217A/Q86R/Q94H/R138Q/T323A/T345S/T97I/V358M/Y195H)
- TEST_CONTEXT: Table XXIII, HLA-A3 supermotif-bearing peptides
PROPERTY_NAME: IC50 (nM)

>  <COMPOUND>
CC[C@H](C)[C@H](NC(=O)[C@H](CC(=O)O)NC(=O)[C@H](CCCCN)NC(=O)[C@H](Cc1c[nH]c2ccccc12)NC(=O)[C@H](CC(C)C)NC(=O)[C@@H](NC(=O)[C@@H](N)[C@@H](C)O)C(C)C)C(=O)N[C@@H](Cc1ccccc1)C(=O)N[C@@H](Cc1c[nH]cn1)C(=O)N[C@@H](CCCNC(=N)N)C(=O)O [Her2/neu.166.V2R10]

>  <PROPERTY_NAME>
IC50

>  <READOUT_VALUE>
76

$$$$
>  <COMPOUND>
CC[C@H](C)[C@H](N)C(=O)N[C@@H](CC(C)C)C(=O)N[C@@H](Cc1c[nH]c2ccccc12)C(=O)N[C@@H](CCCCN)C(=O)N[C@@H](CC(=O)O)C(=O)N[C@H](C(=O)N[C@@H](Cc1ccccc1)C(=O)N[C@@H](Cc1c[nH]cn1)C(=O)N[C@@H](CCCCN)C(=O)O)[C@@H](C)CC [Her2/neu.167]

>  <PROPERTY_NAME>
IC50

>  <READOUT_VALUE>
967

$$$$
>  <COMPOUND>
CC(C)C[C@H](NC(=O)[C@H](CCC(N)=O)NC(=O)[C@H](CC(=O)O)NC(=O)[C@H](Cc1c[nH]c2ccccc12)NC(=O)[C@@H]1CCCN1C(=O)[C@@H](NC(=O)[C@@H](NC(=O)[C@@H](N)Cc1c[nH]cn1)[C@@H](C)O)C(C)C)C(=O)N[C@@H](Cc1ccccc1)C(=O)N[C@@H](CCCNC(=N)N)C(=O)O [Her2/neu.478]

>  <PROPERTY_NAME>
IC50

>  <READOUT_VALUE>
88

$$$$
